// provenance: PubChem BioAssay AID1159580

Experiment: chemical genetic growth profiling, strain panel (AID 1159580);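 further: tested at 20 µM; growth read once vehicle control cultures reached saturation at 30 °C; lower values mean less growth of the strain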
Details: S. cerevisiae deletion strains, growth OD, locus YNL183C, strain NPR1
Screen size: about 5,500 compounds; about 2,000 (36%) were called active. Not shown: some 18% with an inconclusive outcome. No stated cut-off is given here; in the data, active means normalized growth mostly below about 0.91 (no sharp cut-off); inconclusive means no clear call, values can overlap the other calls; inactive means mostly above about 0.92. Some of the results follow.
Possible outcomes: Y (active), N (inactive)

INSERT INTO measurements (compound, assigned_class) VALUES
  ('CCOC(=O)C(NC(=O)c1cccc(Cl)c1)(Nc1nc2ccccc2s1)C(F)(F)F (stereo not drawn)', 'N'),
  ('O=C(Nc1cc(Cl)cc(Cl)c1)c1cc(Cl)ccc1O', 'N'),
  ('O=C(/C=C/c1ccc(Cl)cc1)Nc1cccc(Cl)c1', 'N'),
  ('OC[C@H]1O[C@@H](Oc2ccc(O)cc2)[C@H](O)[C@@H](O)[C@@H]1O', 'N'),
  ('O=C(Nc1ccc(F)cc1F)c1cc(Cl)ccc1O', 'N'),
  ('CC(NC(C)(C)C)C(=O)c1cccc(Cl)c1 (stereo not drawn)', 'N'),
  ('CC(=O)OC1CCC23CC1(C)CCC2C(C)(C)CC3OC(C)=O (stereo not drawn)', 'N'),
  ('CC(C)Sc1c(Cl)cccc1NC(=O)Nc1cccc(C(F)(F)F)c1', 'N'),
  ('CCCc1ncc(C[n+]2ccccc2C)c(N)n1', 'N'),
  ('CCOC(=O)C(O)(c1ccc(NC(=O)c2ccc(Cl)c(Cl)c2)cc1)C(F)(F)F (stereo not drawn)', 'N'),
  ('O[C@@H]1[C@H](O)CO[C@H]1O', 'N'),
  ('CC(C)OC(=O)Nc1cc(Cl)cc(Cl)c1', 'N'),
  ('O=C(/C=C/c1ccc(O)cc1)c1ccc(O)cc1O', 'N'),
  ('O=C(Nc1ccc(F)cc1)c1cc(Br)ccc1O', 'N'),
  ('O=C(N[C@@H](CO)[C@H](O)c1ccc([N+](=O)[O-])cc1)C(Cl)Cl', 'N'),
  ('O=C(Nc1ccc([N+](=O)[O-])cc1Cl)c1cc(Cl)ccc1O', 'N'),
  ('CC1SC(c2cccnc2)N(c2ccc(Cl)cc2)C1=O (stereo not drawn)', 'Y'),
  ('CCCCCCCCCCCCCCCC(=O)OC[C@H](NC(=O)C(Cl)Cl)[C@H](O)c1ccc([N+](=O)[O-])cc1', 'N'),
  ('O=C1C(=O)c2ccccc2C(O)=C1C1CCC(c2ccc(Cl)cc2)CC1 (stereo not drawn)', 'N'),
  ('CC[C@H]1OC(=O)[C@H](C)[C@@H](O[C@H]2C[C@@](C)(OC)[C@@H](O)[C@H](C)O2)[C@H](C)[C@@H](O[C@@H]2O[C@H](C)C[C@H](N(C)C)[C@H]2O)[C@](C)(O)C[C@@H](C)/C(=N/OCOCCOC)[C@H](C)[C@@H](O)[C@]1(C)O', 'N'),
  ('CC(C)OC(=O)Nc1cccc(Cl)c1', 'N'),
  ('O=C(Nc1cc(Cl)cc(Cl)c1)c1cc(Br)ccc1O', 'N'),
  ('O=C(O)CCC(=O)OC[C@@H](NC(=O)C(Cl)Cl)[C@H](O)c1ccc([N+](=O)[O-])cc1', 'N');
